# Test system: NCI-H522
# Protocol: NCI tumour cell line growth inhibition, 48 h
Active and inactive are the calls of the source. Cut-off read from the data, not from the text of the source: active = GI50 up to about 1.1 µM and inactive = higher.
# reported GI50; entries follow

Given the molecule Cn1c(=O)c2c(nc3n(C)c(=O)c4ccccc4n23)n(C)c1=O , what is its reported GI50?
25.1 µM (inactive)

Query Cc1ccccc1NC(=O)C(=O)C(c1cnc2ccc([N+](=O)[O-])cc2n1)[N+](=O)[O-] (stereo not drawn) next
27.4 µM (inactive)

Query CCC#CCCCCCCCCC(F)C(=O)O (stereo not drawn) next
> 100 µM (inactive)

Query Cc1ccc(S(=O)(=O)n2cc(/C=C/C#N)c(/C=C/C#N)c2)cc1 next
> 10 µM (inactive)

Query COC(=O)C1SC(N(C)c2ccccc2)=NC12c1ccccc1Nc1ccccc12 (stereo not drawn) next
13.4 µM (inactive)

Query O=C1CCC(c2nc3cc(Cl)ccc3o2)C(=O)N1 (stereo not drawn) next
> 100 µM (inactive)

----------
# reported GI50; entries follow
# Tested on: KM12
# Protocol: NCI tumour cell line growth inhibition, 48 h
The source made the active and inactive calls. Cut-off read from the data, not from the text of the source: active = GI50 up to about 1.1 µM and inactive = higher.

Some molecules with known GI50 results, for comparison:
1) CC12CC[C@@H](C(C)(C)O)C1[C@@H](O)CC1(C)C2CCC2[C@@]3(C)CC[C@H](O)C(C)(C)C3C(O)C[C@]21C (some centres not stated)
14.6 µM (inactive)
2) Cc1nc(=O)[nH]c2[nH][nH]c(=O)c12
> 100 µM (inactive)
3) O=C(/C=C/c1ccc(-c2ccccc2)cc1)NCc1ccc(C(=O)NCc2ccccc2)cc1
> 100 µM (inactive)
4) N[C@H](C(=O)O)[C@H](Cl)CC(=O)O
> 100 µM (inactive)
5) Clc1cccc(Cl)c1C1SCc2nc3ncccc3n21 (configuration not stated)
52.8 µM (inactive)

Given the molecule NC(=O)CNC(=O)[C@@H]1CC(OCCC(=O)O)CN1C(=O)C1CCCN1C(=O)OCc1ccccc1 (some centres not stated) , what is its reported GI50?
> 100 µM (inactive)

Query Cc1nn2c(N)cc(=O)nc2nc1/C=C/c1ccc(N(C)C)cc1 next
> 28.8 µM (inactive)

----------
# reported GI50; entries follow
# System: MDA-N
# Protocol: NCI tumour cell line growth inhibition, 48 h
The source made the active and inactive calls. No stated cut-off is given here; in the data, active = GI50 up to about 1.1 µM and inactive = higher.

1. CCC1(CC)N=C(C(F)(F)F)c2cc(C(=O)C(F)(F)F)c3ccccc3c2N1
3.15 µM (inactive)
2. Cc1cn(C2CC(N=[N+]=[N-])C(CO)O2)c(=O)n(CCCCBr)c1=O (centres undefined)
> 100 µM (inactive)
3. COc1ccc(C(=O)O[C@H]2CC[C@@]3(C)[C@@H]4CC[C@H]5[C@]6(O)C[C@H](O)[C@@]7(O)[C@@H](CN8C[C@@H](C)CC[C@H]8[C@@]7(C)O)[C@]6(O)C[C@@]53OC24O)cc1OC
> 100 µM (inactive)
4. O=S(=O)(CC(O)C(Cl)(Cl)Cl)NNc1ccccc1 (centres undefined)
> 100 µM (inactive)
5. CNC(=S)/C(C#N)=C(\N)N1CCCC1
> 100 µM (inactive)
6. CC1(C)Oc2ccc3c(=O)cc(-c4cccs4)oc3c2C1C(=O)O (centres undefined)
> 100 µM (inactive)
7. NC1CCC(N(CC(=O)O)CC(=O)O)C(N(CC(=O)O)CC(=O)O)C1 (centres undefined)
> 100 µM (inactive)
8. CCOC(=O)c1nc2ccc(C(F)(F)F)cc2nc1Oc1cc(OC)c(OC)c(OC)c1
> 100 µM (inactive)

Next:
Given the molecule CC1Cc2cc(O)ccc2C2[C@@H]1C1CC[C@H](O)[C@@]1(C)C[C@@H]2O[N+](=O)[O-] (some centres undefined) , what is its reported GI50?
1.96 µM (inactive)

----------
# Test system: HCC 2998
# Protocol: NCI tumour cell line growth inhibition, 48 h
Active and inactive are the calls of the source. No stated cut-off is given here; in the data, active = GI50 up to about 1.1 µM and inactive = higher.
Value type: GI50

Some compounds with known GI50 results, for comparison:
1) COc1ccc2oc3c(ccc[n+]3C)c(=O)c2c1
> 100 µM (inactive)
2) CCC(C)(C)NC1=C(NC(C)=O)C(=O)c2ccccc2C1=O
> 75 µM (inactive)
3) N#CCCN(C(=O)Nc1ccc(NC(=O)N(CCC#N)c2ccccc2)cc1)c1ccccc1
> 100 µM (inactive)

Given the compound CC(C)CC/N=c1/cc2n(-c3ccc(Cl)cc3)c3ccccc3nc-2cc1Nc1ccc(Cl)cc1 , what is its reported GI50?
3.86 µM (inactive)

Query Cc1ccc(NC(=O)CC(=O)n2nc(-c3ccccc3)c(/N=N/c3ccccc3C(=O)O)c2-c2ccccc2)cc1 next
66.2 µM (inactive)

Query CCOc1cc(/C=N/c2nc3cc4sc(/N=C/c5ccc(O)c(OCC)c5)nc4cc3s2)ccc1O next
> 100 µM (inactive)

Query CCOC(=O)CCn1[nH]c(=O)c(Cl)c(Cl)c1=O next
> 100 µM (inactive)

Query CC(C)=CC[C@]12CCN(C)[C@H]1N(S(=O)(=O)c1ccccc1)c1ccccc12 next
> 40.1 µM (inactive)

Query Nc1nc(N)c2ncn(-c3ccc(Br)cc3)c2n1 next
37.7 µM (inactive)

Query C=Cc1nc2nnc(CCCCCCCCc3nnc4nc(C=C)[nH]n34)n2[nH]1 next
75.3 µM (inactive)

Query O=C(O)c1nc2ccc(C(F)(F)F)cc2nc1Nc1ccc(F)cc1 next
15.7 µM (inactive)

Query OCCO[P+]1(OCCO)n2c3ccc2C(c2ccccc2)=C2C=CC(=N2)C(c2ccccc2)=c2ccc(n21)=C(c1ccccc1)C1=NC(=C3c2ccccc2)C=C1 next
0.0195 µM (active)

Query C(#CC1(Nc2ccccc2)CCN(Cc2ccccc2)CC1)C1(Nc2ccccc2)CCN(Cc2ccccc2)CC1 next
0.818 µM (active)

Query CC(=O)N(C)OC(=O)CC(=O)c1ccccc1 next
> 100 µM (inactive)

----------
# System: PC-3
# Protocol: NCI tumour cell line growth inhibition, 48 h
Active and inactive are the calls of the source. Cut-off read from the data, not from the text of the source: active = GI50 up to about 1.1 µM and inactive = higher.
Could you please pick one outcome from this set? true (1) (active), false (0) (inactive)

1) CCCCC1(O)CC2CC1C(C)C2(C)C (stereo unspecified)
false (0)
2) Nc1c2ccccc2nc2ccc3c(=O)cc(-c4ccccc4)oc3c12
false (0)
3) O=C(/C=C/c1ccc(-c2ccccc2)cc1)NCc1ccc(C(=O)NCc2ccccc2)cc1
false (0)
4) C=C(C(=O)O)C1CCC(CC/C=C(\C)CC/C=C(\C)CCC=C(C)C)CO1 (stereo unspecified)
false (0)

For COc1ccc2c(c1)CCN1CCCc3ccccc3C21 (stereo unspecified) , what call appears in the results of this test?
false (0)

Query O=Cc1c(-c2ccccc2)nc2ccccc2c1O next
false (0)

Query CC[C@]1(Cc2ccc(OC)c(OC)c2)C2CC(C(=O)OC)ON2O[C@H](OCc2ccccc2)[C@@H]1OC(C)=O (stereo partly specified) next
false (0)

Query COc1ccc(C(=O)c2cc(OC)c(OC)c(OC)c2)cc1 next
true (1)

Query CCn1c2ccccc2c2nnc(NCCCO)nc21 next
false (0)

Query COc1cc(N(CCC#N)CCC#N)ccc1/C=N\NC(=O)c1ccc(C)cc1 next
false (0)

Query N#CCCN(C(=O)Nc1ccc(NC(=O)N(CCC#N)c2ccccc2)cc1)c1ccccc1 next
false (0)

----------
# Test system: HOP-62
# Protocol: NCI tumour cell line growth inhibition, 48 h
Activity calls are given as the source filed them. Rule as the data show it: active = GI50 up to about 1.1 µM and inactive = higher.
# reported GI50; entries follow

Some compounds with known GI50 results, for comparison:
1. Cc1sc2nc3n(c(=O)c2c1C)N=C(c1ccccc1)CS3
48.3 µM (inactive)
2. N=C(N)/N=C(\N)Nc1ccc(C(=O)O)cc1
> 100 µM (inactive)
3. CCN1CCN(c2nc3ccccc3c3c2CCOc2ccccc2-3)CC1
46.7 µM (inactive)
4. CC(=O)Oc1c(OC(C)C)c(C)c(O[Si](C(C)C)(C(C)C)C(C)C)c2[nH]c3ccccc3c12
> 100 µM (inactive)
5. CS(=O)(=O)CSCSSCS(C)(=O)=O
51.8 µM (inactive)

Any idea what GI50 came out for COc1cc(O)c2c(O)c3c(c4c2c1[C@]1(C4)C(C)=CCCC1(C)C)[C@H](O)[C@@]1(O)CC(O)=C(C(N)=O)C(=O)[C@@]1(O)C3=O on HOP-62?
0.16 µM (active)

Query CCOC(=O)C(=O)Nc1nc2c(OCC)cccc2s1 next
> 100 µM (inactive)

Query O=c1cc(-c2ccccc2)oc2ccc(-c3ccc4oc(-c5ccccc5)cc(=O)c4c3)cc12 next
19.1 µM (inactive)

Query COc1ccc(C(=C(I)c2ccccc2)c2ccc(OC)cc2)cc1 next
> 100 µM (inactive)

Query CN(C)CCNC(=O)c1cccc2c1nc(-c1ccccc1)c1ccccc12 next
4.27 µM (inactive)

----------
# reported GI50; entries follow
# Tested on: SNB-75
# Protocol: NCI tumour cell line growth inhibition, 48 h
Activity calls are given as the source filed them. Cut-off read from the data, not from the text of the source: active = GI50 up to about 1.1 µM and inactive = higher.

Some compounds with known GI50 results, for comparison:
1) CC(=O)Nc1ccccc1[S+]([O-])c1ccccc1 (stereo not given)
> 100 µM (inactive)
2) Cc1ccc(/N=N/c2c(O)ccc3cc(S(=O)(=O)O)ccc23)c(C)c1
> 100 µM (inactive)
3) O=S(=O)(CC(O)C(Cl)(Cl)Cl)NNc1ccccc1 (stereo not given)
> 100 µM (inactive)

Given the compound CC(NC(=O)N(C)C)NC(=O)N(C)C , what is its reported GI50?
> 10 µM (inactive)

Query CC(C)NC(NC(C)C)=C(S(=O)(=O)C(F)(F)C(F)(F)C(F)(F)C(F)(F)F)S(=O)(=O)C(F)(F)C(F)(F)C(F)(F)C(F)(F)F next
> 100 µM (inactive)
